test: Index of bioavailability (% Relative Activity from plasma TT AUC, oral vs i.v.); type: in vivo; conditions: dose-adjusted AUC of plasma TT, p.o. versus i.v. bolus
Lab note: class by % oral/i.v. activity (Rat), see lo = under 10%, med = from 10% up to 40%, hi = 40% and over

The following molecules have reported results that may help.
• Cl.Cl.N=C(N)NCCC[C@@H](C=O)NC(=O)[C@@H]1C[C@H](Oc2ccccc2)CN1C(=O)C1NCCC2CCCCC21 (relative stereo) [Example 15, D-1-Piq-Pro(4-cis-phenoxy)-ArgH.2 HCl] = lo
• Cl.Cl.N=C(N)NCCC[C@@H](C=O)NC(=O)[C@@H]1C[C@H](Cc2ccccc2)CN1C(=O)[C@H]1CCCCN1 (relative stereo) [Example 5, D-hPro-Pro(4-cis-benzyl)-ArgH.2 HCl] = med
• CCC[C@H]1C[C@@H](C(=O)N[C@H](C=O)CCCNC(=N)N)N(C(=O)[C@H]2CCCCN2)C1.Cl.Cl (relative stereo) [Example 3, D-hPro-Pro(4-cis-n-propyl)-ArgH.2 HCl] = hi
• CC[C@H]1C[C@@H](C(=O)N[C@H](C=O)CCCNC(=N)N)N(C(=O)[C@H]2CCCCN2)C1.Cl.Cl (relative stereo) = hi
• Cl.Cl.N=C(N)NCCC[C@@H](C=O)NC(=O)[C@@H]1CC2CCCCC2N1C(=O)[C@H]1CCCCN1 (relative stereo) = hi

Exercise: For Cl.Cl.Cl.N=C(N)NCCC[C@@H](C=O)NC(=O)[C@@H]1C[C@H](Oc2ccc(N)cc2)CN1C(=O)[C@H]1CCCCN1 (relative stereo) , which % oral/i.v. activity (Rat) bin applies?
Solution: lo

Exercise: Using the reported % oral/i.v. activity (Rat), which band applies to Cl.Cl.Cl.N=C(N)NCCC[C@@H](C=O)NC(=O)[C@@H]1C[C@H](Oc2cccnc2)CN1C(=O)[C@H]1CCCCN1 (relative stereo) ?
Solution: med

Exercise: Any idea which band Cl.Cl.N=C(N)NCCCC(C=O)NC(=O)C1CC2CCCCC2N1C(=O)C1NCCC2CCCCC21 [Example 20, D-1-cis-Piq-cis-Ohi-ArgH.2 HCl] is in?
Solution: lo

Exercise: Would you mind sorting CCS(=O)(=O)N[C@@H](C(=O)N1[C@H](C(=O)N[C@H](C=O)CCCNC(=N)N)C[C@@H]2CCCC[C@@H]21)c1ccccc1.Cl (relative stereo) [Example 22, EtSO2 -D-Phg-cis-Ohi-ArgH.HCl] into the appropriate category?
Solution: med

Exercise: Looking at C[C@H]1C[C@@H](C(=O)N[C@H](C=O)CCCNC(=N)N)N(C(=O)[C@H]2CCCCN2)C1.Cl.Cl (relative stereo) , which class would you pick?
Solution: hi

Exercise: Please report the category associated with Cl.Cl.N=C(N)NCCC[C@H](C=O)NC(=O)[C@@H]1C[C@H](Oc2ccccc2)CN1C(=O)[C@H]1CCCCN1 (relative stereo) , nothing else.
Solution: med

# credit: patent US5599793A
